# Tested on: DU-145
# test.protocol: NCI tumour cell line growth inhibition, 48 h
Activity calls are given as the source filed them. Rule as the data show it: active = GI50 up to about 1.1 µM and inactive = higher.
Pick one and only one: active, inactive

Query block: Per the records of this test, what outcome belongs to `O=C(C=P(c1ccccc1)(c1ccccc1)c1ccccc1)c1ccc(-c2cccc([N+](=O)[O-])c2)cc1` ?
Result block: inactive

Query block: Per the records of this test, what outcome belongs to CCN(CC)CCN(C)c1ccc(CO)c2c1c(=O)c1ccccc1[s+]2[O-] (stereo unspecified) ?
Result block: inactive

Query block: Per the records of this test, what outcome belongs to `COc1ccc(C2=C(N)c3ncccc3C2=O)cc1` ?
Result block: inactive

Query block: Per the records of this test, what outcome belongs to `C=CCNC(=O)NC(=O)CSC1=NC(=O)C2(NN1)c1ccccc1-c1ccccc12` ?
Result block: inactive

Query block: Per the records of this test, what outcome belongs to `CCOC(=O)NC(Nc1c(F)c(F)c(F)c(F)c1F)(C(F)(F)F)C(F)(F)F` ?
Result block: inactive

Query block: Per the records of this test, what outcome belongs to `C/N=C/N(C)c1c2ccccc2nc2ccccc12` ?
Result block: inactive

Query block: Per the records of this test, what outcome belongs to `CC1=Nc2sc3c(c2C2=NCCN12)CCCC3` ?
Result block: inactive

Query block: Per the records of this test, what outcome belongs to COc1c2c(cc3oc(C)cc(=O)c13)OC(=N)C(C(N)=O)C2CC(=O)c1ccc(N)cc1 (stereo unspecified) ?
Result block: inactive

Query block: Per the records of this test, what outcome belongs to O=c1n(CC2CO2)c(=O)n(CC2CO2)c(=O)n1CC1CO1 (stereo unspecified) ?
Result block: inactive

Query block: Per the records of this test, what outcome belongs to C[N+]1(CCCl)CC[N+](C)(CCCl)CC1 (stereo unspecified) ?
Result block: inactive

Query block: Per the records of this test, what outcome belongs to `NC(=O)C(=CNC(=S)Nc1ccc(S(=O)(=O)Nc2ccccn2)cc1)C(N)=O` ?
Result block: inactive

Query block: Per the records of this test, what outcome belongs to `O=S(=O)(O)SCCNCCCCCC1CCCCC1` ?
Result block: inactive

Query block: Per the records of this test, what outcome belongs to CCOC1NC(=O)Oc2ccccc21 (stereo unspecified) ?
Result block: inactive

Query block: Per the records of this test, what outcome belongs to `O=C(O)CCc1ccc(-c2ccccc2)[nH]1` ?
Result block: inactive

Query block: Per the records of this test, what outcome belongs to `O=C1c2ccccc2S(=O)(=O)c2cc(-c3nn[nH]n3)ccc21` ?
Result block: inactive

Query block: Per the records of this test, what outcome belongs to `CN(C(=O)OC(C)(C)C)[C@H]1CCCC[C@H]1N1CCCC1` ?
Result block: inactive

Query block: Per the records of this test, what outcome belongs to `O=C(/N=N/c1ccc(Br)cc1)NNc1ccc(Br)cc1` ?
Result block: inactive

Query block: Per the records of this test, what outcome belongs to `CC(C)(C)C(=O)N1CCN(C=O)C1=S` ?
Result block: inactive

Query block: Per the records of this test, what outcome belongs to CCCCCCCCCCCCCCCCCCNc1nc(=O)n(C2CC(O)C(COP(=O)(O)O)O2)cc1F (stereo unspecified) ?
Result block: inactive

Query block: Per the records of this test, what outcome belongs to O=C(O)CC(Cc1ccc2c(c1)OCO2)C(=O)O (stereo unspecified) ?
Result block: inactive

Query block: Per the records of this test, what outcome belongs to `CN(C)CCNC1=C(Cl)C(=O)c2c(O)ccc(O)c2C1=O` ?
Result block: inactive

Query block: Per the records of this test, what outcome belongs to `CCC(=O)c1ccc2[nH]c3c(C)c4c(O)cc(C)nc4c(C)c3c2c1` ?
Result block: inactive

Query block: Per the records of this test, what outcome belongs to `COC1=C(OC)C(=O)C(Sc2ccc3ccccc3c2)=CC1=O` ?
Result block: inactive

Query block: Per the records of this test, what outcome belongs to `CCCCSC1=N/C(=C\c2ccccc2O)C(Cl)=N1` ?
Result block: inactive

Query block: Per the records of this test, what outcome belongs to `Oc1cc(-c2cccc3ccccc23)nc2ncccc12` ?
Result block: active

Query block: Per the records of this test, what outcome belongs to CC(C)(C)[Si](C)(C)OCC1CCC(n2cnc3c(NC(=O)c4ccccc4)ncnc32)O1 (stereo unspecified) ?
Result block: inactive

Query block: Per the records of this test, what outcome belongs to CC(=O)Nc1cccc(N2C(=O)/C(=C\c3cccc(Oc4ccccc4)c3)S(=O)(=O)C2c2ccccc2)c1 (stereo unspecified) ?
Result block: inactive

Query block: Per the records of this test, what outcome belongs to `O=C(O)c1cc2cc(c1)/N=C/c1ccccc1OCc1cccc(n1)COc1ccccc1/C=N/2` ?
Result block: inactive

Query block: Per the records of this test, what outcome belongs to CC(=O)Oc1c(C)cc2c(c1C)C(C)CN2C(C)=O (stereo unspecified) ?
Result block: inactive

Query block: Per the records of this test, what outcome belongs to CC(=O)N1CCN(C23OC4(N5CCN(C(C)=O)CC5)C5C6CC(C7C6C4C72)C53)CC1 (stereo unspecified) ?
Result block: inactive

Query block: Per the records of this test, what outcome belongs to CCC(O)(Cc1ccc(OC)cc1)c1ccc(OC)cc1 (stereo unspecified) ?
Result block: inactive

Query block: Per the records of this test, what outcome belongs to `CC1=NN(c2cccc(Cl)c2)C(=N/c2nc3ccccc3s2)/C1=C\c1ccc(Cl)cc1` ?
Result block: inactive

Query block: Per the records of this test, what outcome belongs to `O=c1[nH]nc(NNc2ccccc2)c2nnn(C3CCCCC3)c12` ?
Result block: inactive

Query block: Per the records of this test, what outcome belongs to `CNC(=O)/C(=C/c1ccc(OC)cc1)c1cc(OC)c(OC)c(OC)c1` ?
Result block: inactive

Query block: Per the records of this test, what outcome belongs to O=C(Nc1ccn(C2CC(O)C(CO)O2)c(=O)n1)c1ccccc1 (stereo unspecified) ?
Result block: inactive

Query block: Per the records of this test, what outcome belongs to COC1/C=C/OC2(C)Oc3c(C)c(O)c4c(c3C2=O)C(=O)C=C(NC(=O)/C(C)=C\C=C\C(C)C(OC=O)C(C)C(O)C(C)C(OC(C)=O)C1C)C4=O (stereo unspecified) ?
Result block: inactive

meta.source: ChEMBL document CHEMBL1201862
